Provenance of the data: PubChem BioAssay (NCATS)

- assay explanation: qHTS of pediatric cancer cell lines to identify multiple opportunities for drug repurposing: Primary screen for NB1643 cells (AID 1347099); note: nearly all actives have a fitted effect of over 50% in size
- study conditions: NB1643 neuroblastoma viability, CellTiter-Glo luminescence, 48 h; series mostly up to 46 µM
Results filed as inconclusive are left out. Activity calls are given as the source filed them. Calls come from the whole dose curve; as a rule, active = well fitted cell-killing curve with a large enough effect; inconclusive = small, poorly fitted or top-dose-only effect; inactive = no such curve, though single readings can be large or run the other way.
Outcomes: label 1 = active, label 0 = inactive

>  <compound>
CC(C)(OCc1nn(Cc2ccccc2)c2ccccc12)C(=O)O

>  <assigned label>
label 0

$$$$
>  <compound>
CC(=O)Nc1cccc(-n2c(=O)n(C3CC3)c(=O)c3c(Nc4ccc(I)cc4F)n(C)c(=O)c(C)c32)c1

>  <assigned label>
label 1

$$$$
>  <compound>
CC(C)=CCCC(C)=CCCC(C)=CCCC(C)=CCCC(C)=CCCC(C)=CCCC(C)=CCCC(C)=CCCC(C)=CCO

>  <assigned label>
label 0

$$$$
>  <compound>
OCCn1cc(-c2ccc3c(c2)CCC3=NO)c(-c2ccncc2)n1

>  <assigned label>
label 1

$$$$
>  <compound>
COc1cc([C@@H]2c3cc4c(cc3[C@@H](O[C@@H]3O[C@@H]5CO[C@@H](C)O[C@@H]5[C@H](O)[C@@H]3O)[C@H]3COC(=O)[C@H]23)OCO4)cc(OC)c1O

>  <assigned label>
label 1

$$$$
>  <compound>
CC(C)(C)c1nc(-c2cccc(NS(=O)(=O)c3c(F)cccc3F)c2F)c(-c2ccnc(N)n2)s1

>  <assigned label>
label 1

$$$$
>  <compound>
O=C1C(c2c(O)[nH]c3ccccc23)=Nc2ccccc21

>  <assigned label>
label 0

$$$$
>  <compound>
O=C(O)C1=CC(O)C(O)[C@H](O)C1 (some centres undefined)

>  <assigned label>
label 0

$$$$
>  <compound>
C[C@@H]1O[C@@H](O[C@H]2CC[C@@]3(C)[C@H](CC[C@@H]4[C@H]3C[C@@H](O)[C@]3(C)[C@@H](C5=CC(=O)OC5)CC[C@]43O)C2)C[C@H](O)[C@@H]1O[C@H]1C[C@H](O)[C@H](O[C@H]2C[C@H](O)[C@@H](O)[C@@H](C)O2)[C@H](C)O1 (stereo in doubt)

>  <assigned label>
label 1

$$$$

---

- assay explanation: qHTS profiling of the MIPE4 collection as inhibitors of Plasmodium falciparum (3D7) proliferation (AID 743344);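 note: scaled between DMSO vehicle wells and 0.29 µM artemisinin as full inhibition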
- study conditions: P. falciparum 3D7 in erythrocytes, SYBR Green DNA fluorescence, 72 h; at 28.5 µM (top of the series) unless noted
Use parasite growth, % of DMSO control to assign classes; range list: lower band: < 10%; central band: ≥ 10% and < 60%; upper band: ≥ 60%

>  <compound>
CN[C@@H]1[C@@H](O)[C@@H](O[C@@H]2[C@@H](O)[C@H](O[C@H]3O[C@H](CN)[C@@H](O)[C@H](O)[C@@H]3O)[C@@H](N)C[C@@H]2NC(=O)[C@@H](O)CN)OC[C@]1(C)O

>  <assigned label>
upper band

$$$$
>  <compound>
Fc1ccc(CNc2ncnc3ccc(F)cc23)cc1

>  <assigned label>
upper band

$$$$
>  <compound>
CCC(=C(c1ccc(O)cc1)c1ccc(OCCNC)cc1)c1ccccc1

>  <assigned label>
lower band

$$$$
>  <compound>
CC(C)C[C@H](NC(=O)c1cc2ccccc2s1)C(=O)N1CCN(C(=O)[C@H](CO)NS(=O)(=O)c2ccc(Cl)cc2Cl)CC1

>  <assigned label>
central band

$$$$
>  <compound>
Cc1cc(NC(=O)Nc2ccc(N(C)C)cc2)c2cc(F)cc(F)c2n1

>  <assigned label>
lower band

$$$$
>  <compound>
COc1cc(Cl)cn2c(-c3cccc(NC4CNC4)n3)cnc12

>  <assigned label>
central band

$$$$
>  <compound>
O=C(O)CCNc1cc(N2CCc3ccccc3CC2)nc(-c2ccccn2)n1

>  <assigned label>
central band

$$$$
>  <compound>
O=C1C(CCC(O)c2ccc(F)cc2)C(c2ccc(O)cc2)N1c1ccc(F)cc1 (stereo unspecified)

>  <assigned label>
central band

$$$$
>  <compound>
CC(=O)OCC(=O)[C@@]1(O)CC[C@H]2[C@@H]3CCC4=CC(=O)C=C[C@]4(C)[C@@H]3[C@@H](O)C[C@@]21C

>  <assigned label>
upper band

$$$$
>  <compound>
Cc1nc(C(=O)NCC(=O)O)c(O)c2ccc(Oc3ccccc3)cc12

>  <assigned label>
upper band

$$$$
>  <compound>
CCCCCCOC(=O)N=C(N)c1ccc(NCc2nc3cc(C(=O)N(CCC(=O)OCC)c4ccccn4)ccc3n2C)cc1

>  <assigned label>
lower band

$$$$
>  <compound>
CC(=O)N1CCN(c2ccc(OCc3nn(C)c(C)c3-c3cccc4c(CCCOc5cc(C)c(Cl)c(C)c5)c(C(=O)O)n(Cc5cccnc5)c34)cc2)CC1

>  <assigned label>
lower band

$$$$
>  <compound>
CC[C@H](NC(=O)[C@H](C)NC)C(=O)N1C[C@@H](O)C[C@H]1Cc1c(-c2[nH]c3cc(F)ccc3c2C[C@H]2C[C@H](O)CN2C(=O)[C@H](CC)NC(=O)[C@H](C)NC)[nH]c2cc(F)ccc12

>  <assigned label>
lower band

$$$$
>  <compound>
CCC=CC[C@H]1C(=O)CC[C@@H]1CC(=O)OC

>  <assigned label>
upper band

$$$$
>  <compound>
CO[C@H]1/C=C\O[C@@]2(C)Oc3c(C)c(O)c4c(O)c(c5c(nc6cc(C)ccn65)c4c3C2=O)NC(=O)C(C)=CC=C[C@H](C)[C@H](O)[C@@H](C)[C@@H](O)[C@@H](C)[C@H](OC(C)=O)[C@H]1C

>  <assigned label>
central band

$$$$
>  <compound>
CN1C(=O)C(Cc2c[nH]c3ccccc23)NC1=S (stereo unspecified)

>  <assigned label>
upper band

$$$$
>  <compound>
C[C@@H](O[C@H]1OCCN(Cc2n[nH]c(=O)[nH]2)[C@@H]1c1ccc(F)cc1)c1cc(C(F)(F)F)cc(C(F)(F)F)c1

>  <assigned label>
central band

$$$$
>  <compound>
C=CC(=O)Nc1cccc(Sc2nc(Nc3ccc(N4CCN(C)CC4)cc3)ncc2Cl)c1

>  <assigned label>
lower band

$$$$
>  <compound>
Cc1c(-c2cccc3c(CCCOc4cccc5ccccc45)c(C(=O)O)n(Cc4cccnc4)c23)c(COc2ccc(N3CCN([S+](=O)([O-])N(C)C)CC3)cc2)nn1C

>  <assigned label>
lower band

$$$$
>  <compound>
CN(C)CC[C@H](CSc1ccccc1)Nc1ccc(S(=O)(=O)NC(=O)c2ccc(N3CCN(Cc4ccccc4-c4ccc(Cl)cc4)CC3)cc2)cc1[N+](=O)[O-]

>  <assigned label>
central band

$$$$
>  <compound>
CN(C)CCN(Cc1ccc(Cl)cc1)c1ccccn1

>  <assigned label>
central band

$$$$
>  <compound>
CCCCCOC(=O)Nc1nc(=O)n([C@@H]2O[C@H](C)[C@@H](O)C2O)cc1F (stereo partly specified)

>  <assigned label>
upper band

$$$$
>  <compound>
C[C@]12CCC3=C4CCC(=O)C=C4CC[C@@H]3[C@H]1CC[C@@]2(O)CC#N

>  <assigned label>
upper band

$$$$
